Tested on: VchCAST RNA-guided transposition machinery (E. coli BL21(DE3) host, lacZ target)
test protocol: relative integration efficiency (T-RL orientation) vs wild-type transposon end (log2 (normalized fold change)); transposon end mutated: right end (5 bp flank + 75 bp right end); higher = more efficient transposition
Decision: relative integration efficiency (log2) compared against -2; not below it gives class 1, below it gives class 0.

INSERT INTO results (biosequence, qualitative_label) VALUES
  ('ACATTTGTTGATACAACCATAAAATGATAATTAATAATTATTTATAATCAGCAACTTAACCACAAAACACCCATAAATTGATAATTAACAAAACACCCATAAATTGATATTGCCTCTGATCATAGTC', 'class 0'),
  ('ACATTTGTTGATACAACCATTAAATGATAATTACACCCATATATTGATAATTATCACACCCAATTTAACTATAACGCTCTGATCATAGTCAGACCAACATTGCTACGACCCGTATTCGCACCGACAC', 'class 1'),
  ('ACATTTGTTCATCCAACCATAAAATGATAATTACACCCATAAATGGATAATTATCACACCCAATTTAACTATAACGCTCTGATCATAGTCAGACCAACATTGCTACGACCCGTATTCGCACCGACAC', 'class 0'),
  ('ACATTTGTTGATACAACCATAAAATGATAATTACACCCATAAATTGATAATTATCACACCCATAAATTGATATTGCCTCTGACAACCATAAAATGATAATTATCATAGTCAGACCAAGCACCGACAC', 'class 1'),
  ('ACATTTGTTGATACAACCATAAAATGATAATTAATAATTATTTATAATCAGCAACTTAACCACACACCCATAAATTGATAATTATCAACAAACGCCCGGTCGCGGTACTCTGATCATAGTCAGACCA', 'class 0');
